FYI, the data here is from the supplement of paper PMC10567573.

B1: PDZK1 (parent)
chain: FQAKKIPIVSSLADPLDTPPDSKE

variants of: B1; test: protein stability index of a GFP-peptide fusion (GPS, HEK-293T) (PSI 1-6); higher = more stable; conditions: c terminus: a fixed tail appended;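 also: lentivirally expressed fusions sorted by FACS into six bins by GFP to DsRed ratio, PSI derived from sequencing read proportions per bin multiplied by bin number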
observable: protein stability index

{"columns": ["variantString", "valueObserved"],
 "data": [
  ["L16C", 3.72],
  ["L16V", 3.91],
  ["P19G", 3.91],
  ["L16R", 3.77],
  ["D14L", 3.5],
  ["P15Q", 3.71],
  ["L16N", 4.27],
  ["P15M", 3.11],
  ["P20Y", 3.89],
  ["P20D", 4.28],
  ["L16F", 2.89]
]}
